Tested on: MOOVA (Monochoria)
Experiment: Postemergence weed control under flooded paddy conditions
Assay type: in vivo, Monochoria vaginalis
Settings: Rate 0.0313 kg/ha, postemergence weeds, rated 3 to 4 weeks after treatment
From the text: Results of herbicide evaluation are expressed on a rating scale (0-9). The scale is based upon a visual observation of plant stand, vigor, malformation, size, chlorosis and overall plant appearance as compared with a control. Plastic containers containing weeds which are 3 to 5 cm tall and rice seedlings at the 1.5 to 2.5 leaf stage are flooded with water. […] The compounds evaluated are reported by compound number given in Example 37.
PROPERTY_NAME: Herbicidal rating MOOVA
Lab note: write the figure by itself, no unit.

MOLECULE: CN1C(=O)C(CC(=O)NS(C)(=O)=O)SC1=Nc1cc(-n2c(=O)cc(C(F)(F)F)n(C)c2=O)c(F)cc1Cl (stereo not shown)
PROPERTY_NAME: Herbicidal rating MOOVA
QUANTITATIVE_RESULT: 9.0
//
MOLECULE: CCOC(=O)CN1C(=O)C(CC(=O)NS(=O)(=O)CC)SC1=Nc1cc(-n2c(=O)cc(C(F)(F)F)n(C)c2=O)c(F)cc1Cl (stereo not shown)
PROPERTY_NAME: Herbicidal rating MOOVA
QUANTITATIVE_RESULT: 5.0

Request the reported Herbicidal rating MOOVA associated with CCOC(=O)CN1C(=O)C(Cc2ccccc2OC(C)C(=O)O)S/C1=N/c1cc(-n2c(=O)cc(C(F)(F)F)n(C)c2=O)c(F)cc1Cl (stereo not shown)
6.0

Request the reported Herbicidal rating MOOVA associated with CCOC(=O)CN1C(=O)C(CC(=O)NS(=O)(=O)c2ccccc2)SC1=Nc1cc(-n2c(=O)cc(C(F)(F)F)n(C)c2=O)c(F)cc1Cl (stereo not shown)
9.0

I have this molecule here, C=CCN1C(=O)C(CC(=O)OC(C)C(=O)OCC)SC1=Nc1cc(-n2c(=O)ccn(C)c2=O)c(F)cc1Cl (stereo not shown) , and I need its recorded Herbicidal rating MOOVA.
9.0

For the molecule shown here, C=CCN1C(=O)C(CC(N)=O)SC1=Nc1cc(-n2c(=O)cc(C(F)(F)F)n(C)c2=O)c(F)cc1Cl (stereo not shown) , give the reported Herbicidal rating MOOVA.
9.0

Which Herbicidal rating MOOVA reading was recorded for the molecule C=CCN1C(=O)C(CC(=O)O)SC1=Nc1cc(-n2c(=O)cc(C(F)(F)F)n(C)c2=O)c(F)cc1Cl (stereo not shown) ?
4.0

###

Tested on: ECHORC (Watergrass (Calif.))
Assay: Preemergence weed control under flooded paddy conditions
Format: in vivo, Echinochloa oryzoides
Details: 0.0313 kg/ha, rated 3-4 weeks after treatment
PROPERTY_NAME: Herbicidal rating ECHORC
Give your answer as a number; write no unit.

MOLECULE: Cn1c(C(F)(F)F)cc(=O)n(-c2cc(N=C3SCC(=O)N3CC(=O)NS(C)(=O)=O)c(Cl)cc2F)c1=O
QUANTITATIVE_RESULT: 0.0

MOLECULE: CCOC(=O)CN1C(=O)C(C)SC1=Nc1cc(-n2c(=O)cc(C(F)(F)F)n(C)c2=O)c(F)cc1Cl (stereo not shown)
QUANTITATIVE_RESULT: 5.0

MOLECULE: CCOC(=O)CN1C(=O)C(CC(=O)OCc2ccccc2)OC1=Nc1cc(-n2c(=O)cc(C(F)(F)F)n(C)c2=O)c(F)cc1Cl (stereo not shown)
QUANTITATIVE_RESULT: 5.0

MOLECULE: CCOC(=O)COc1ccccc1CC1S/C(=N/c2cc(-n3c(=O)cc(C(F)(F)F)n(C)c3=O)c(F)cc2Cl)N(CC(=O)OCC)C1=O (stereo not shown)
QUANTITATIVE_RESULT: 5.0

MOLECULE: COC(=O)CCN1C(=O)CSC1=Nc1cc(-n2c(=O)cc(C(F)(F)F)n(C)c2=O)c(F)cc1Cl
QUANTITATIVE_RESULT: 0.0

# Herbicidal rating ECHORC lookup, item CCOC(=O)CN1C(=O)C(CC(=O)NC)SC1=Nc1cc(-n2c(=O)cc(C(F)(F)F)n(C)c2=O)c(F)cc1Cl (stereo not shown)
0.0

Find the recorded Herbicidal rating ECHORC belonging to CCOC(=O)CN1C(=O)C(Cc2ccccc2OC(C)C(=O)OC)SC1=Nc1cc(-n2c(=O)cc(C(F)(F)F)n(C)c2=O)c(F)cc1Cl (stereo not shown) and report it.
4.0
